- experimentalTarget: Toll-like receptor 9 (Mus musculus) (UniProt Q9EQU3)
- Sequence (Q9EQU3 whole entry): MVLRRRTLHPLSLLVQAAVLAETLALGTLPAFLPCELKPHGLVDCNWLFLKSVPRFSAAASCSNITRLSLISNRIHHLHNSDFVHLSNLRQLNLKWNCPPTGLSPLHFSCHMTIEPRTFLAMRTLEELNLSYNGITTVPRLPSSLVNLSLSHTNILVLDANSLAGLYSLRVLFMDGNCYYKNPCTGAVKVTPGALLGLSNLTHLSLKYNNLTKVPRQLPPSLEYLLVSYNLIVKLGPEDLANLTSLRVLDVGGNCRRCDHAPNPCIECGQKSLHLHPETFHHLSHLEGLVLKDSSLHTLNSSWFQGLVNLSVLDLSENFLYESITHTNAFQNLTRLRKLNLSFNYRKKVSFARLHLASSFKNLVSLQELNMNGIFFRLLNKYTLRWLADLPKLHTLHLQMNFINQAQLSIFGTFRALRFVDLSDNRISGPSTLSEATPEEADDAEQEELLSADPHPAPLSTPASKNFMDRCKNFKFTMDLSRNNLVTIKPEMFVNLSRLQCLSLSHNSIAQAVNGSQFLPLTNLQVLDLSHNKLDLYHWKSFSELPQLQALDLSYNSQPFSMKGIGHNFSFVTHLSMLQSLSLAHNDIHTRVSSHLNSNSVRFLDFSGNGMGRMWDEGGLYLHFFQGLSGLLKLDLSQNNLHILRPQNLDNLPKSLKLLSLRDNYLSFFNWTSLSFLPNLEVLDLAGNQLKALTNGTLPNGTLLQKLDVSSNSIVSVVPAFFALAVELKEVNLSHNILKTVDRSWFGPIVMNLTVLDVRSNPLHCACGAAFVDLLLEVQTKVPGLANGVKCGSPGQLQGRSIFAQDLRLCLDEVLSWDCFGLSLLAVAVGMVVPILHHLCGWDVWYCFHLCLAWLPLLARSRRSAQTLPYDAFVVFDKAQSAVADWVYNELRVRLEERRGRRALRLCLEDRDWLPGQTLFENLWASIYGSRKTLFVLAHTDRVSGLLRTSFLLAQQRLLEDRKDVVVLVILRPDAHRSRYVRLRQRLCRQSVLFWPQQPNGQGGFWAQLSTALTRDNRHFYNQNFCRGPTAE
- experimentSummary: Inhibition of TLR9 in BALB/c mouse BMDM assessed as downregulation of CpG-stimulated IL-12p40 level at 5 ug/ml preincubated for 18 hrs followed by CpG challenge measured after 24 hrs by ELISA relative to control
Activity calls are given as the source filed them. No rule for the calls is given here.
Possible outcomes: active, inactive

1. CC[C@@H](C)NCCS(=O)(=O)Cc1ccc(Br)cc1    inactive
2. O=C(Cc1ccccc1)NCCN1CCOCC1    active
3. COc1ccc2c(CS(=O)(=O)NCCN3CCCC3)cc(=O)oc2c1    inactive
4. C[N+](C)(C)CCOP(=O)(O)Cc1ccc(Br)cc1    inactive
5. O=S(=O)(Cc1ccc(Br)cc1)NCCN1CCCC1    inactive
6. CC[C@H](C)NCCS(=O)(=O)c1ccccc1    inactive
7. CN(C)CCNS(=O)(=O)Cc1ccc([N+](=O)[O-])cc1    inactive
8. Cc1ccc(CS(=O)(=O)NCCN2CCOCC2)cc1    inactive
9. CN(C)CCOP(=O)(O)Cc1ccc(Br)cc1    inactive
10. COc1cccc(C(=O)NCCN2CCCC2)c1    inactive
11. CN(C)CCS(=O)(=O)NCc1ccccc1    inactive
12. COc1cccc(C(=O)NCCN(C)C)c1    inactive
13. O=S(=O)(CCN1CCCC1)Cc1ccc(Br)cc1    inactive

###

- experimentalTarget: Toll-like receptor 9 (Mus musculus) (UniProt Q9EQU3)
- experimentSummary: Inhibition of TLR9 in BALB/c mouse BMDM assessed as downregulation of CpG-stimulated IL-6 level at 5 ug/ml preincubated for 18 hrs followed by CpG challenge measured after 24 hrs by ELISA relative to control
Active and inactive are the calls of the source. The rule behind the calls is not given here.
Labels: active, inactive

1) O=S(=O)(Cc1ccccc1)NCCN1CCOCC1    inactive
2) CC(C)(C)NCCS(=O)(=O)c1ccccc1    inactive
3) CN(C)CCNS(=O)(=O)Cc1ccc([N+](=O)[O-])cc1    inactive
4) O=[N+]([O-])c1ccc(CNS(=O)(=O)CCN2CCCC2)cc1    inactive
5) CN(C)CCCNS(=O)(=O)Cc1ccc(F)cc1    inactive
6) O=S(=O)(Cc1ccc(Br)cc1)NCCN1CCCC1    inactive
7) O=S(=O)(CCN1CCCC1)Nc1ccc(F)cc1    inactive
8) O=S(=O)(Cc1ccc(Br)cc1)NCCN1CCOCC1    inactive
9) CN(C)CCNS(=O)(=O)Cc1ccc(/C=C/c2ccccc2)cc1    inactive
10) CN(C)CCN(C)CCS(=O)(=O)Nc1ccc(F)cc1    inactive
11) CN(C)CCS(=O)(=O)Cc1ccc(F)cc1    inactive
12) O=S(=O)(CCN1CCOCC1)c1ccccc1    inactive
13) CC[C@H](C)NCCS(=O)(=O)Cc1cccc(F)c1    inactive
14) O=S(=O)(CCN1CCOCC1)Nc1ccc(F)cc1    inactive
15) C[N+](C)(C)CCOP(=O)(O)Cc1ccc(Br)cc1    inactive
16) COc1cccc(C(=O)NCCN2CCCC2)c1    active
17) CC[C@H](C)NCCS(=O)(=O)c1ccccc1    inactive
18) O=C(Cc1ccccc1)NCCN1CCOCC1    active
19) COc1ccc2c(CS(=O)(=O)NCCN(C)C)cc(=O)oc2c1    inactive
20) CN(C)CCN(C)CCS(=O)(=O)Nc1ccccc1    inactive
21) O=S(=O)(CCN1CCCC1)Nc1ccccc1    inactive
22) O=S(=O)(CCN1CCCC1)NCc1ccc(F)cc1    active

###

- experimentalTarget: UniProt:Q9EQU3
- experimentSummary: Inhibition of TLR9 in BALB/c mouse BMDM assessed as downregulation of CpG-stimulated IL-6 level at 5 ug/ml preincubated for 18 hrs followed by CpG challenge measured after 24 hrs by ELISA relative to control
The source made the active and inactive calls. How the calls were made is not given here.
Labels: active, inactive

1) Cc1ccc(CS(=O)(=O)CCCN2CCOCC2)cc1    inactive
2) CN(C)CCNS(=O)(=O)Cc1ccc2ccccc2c1    inactive
3) CN(C)CCCS(=O)(=O)Cc1ccc(Br)cc1    inactive
4) CN(C)CCN(C)CCS(=O)(=O)c1ccccc1    inactive
5) C[N+](C)(C)CCCS(=O)(=O)Cc1ccc(Br)cc1    inactive
6) CN(C)CCS(=O)(=O)Cc1ccc(Br)cc1    active
7) CC[C@@H](C)NCCS(=O)(=O)Cc1cccc(F)c1    inactive
8) Cc1ccc(CS(=O)(=O)CC[N+]2(C)CCCC2)cc1    inactive
9) CN(C)CCN(C)CCS(=O)(=O)Cc1ccc(F)cc1    inactive
10) CCCNCCS(=O)(=O)c1ccccc1    inactive
11) Cc1ccc(CNS(=O)(=O)CCN2CCOCC2)cc1    inactive
12) CC[C@@H](C)NCCS(=O)(=O)c1ccccc1    inactive
13) CN(C)CCOP(=O)(O)Cc1ccc([N+](=O)[O-])cc1    inactive
14) COc1ccc2c(CS(=O)(=O)NCCN3CCOCC3)cc(=O)oc2c1    inactive
15) O=S(=O)(Cc1ccc(F)cc1)NCCN1CCCC1    inactive
16) O=S(=O)(CCN1CCCC1)NCc1ccccc1    inactive
17) CN(C)CCCNC(=O)Cc1ccccc1    inactive
18) CN(C)CCCNS(=O)(=O)Cc1ccccc1    inactive
19) O=S(=O)(CCCN1CCCC1)Cc1ccc(Br)cc1    inactive
20) CN(C)CCS(=O)(=O)NCc1ccc([N+](=O)[O-])cc1    active
21) Cc1ccc(CP(=O)(O)OCCN(C)C)cc1    inactive
22) CN(C)CCS(=O)(=O)Nc1ccc(F)cc1    inactive
23) Cc1ccc(CNS(=O)(=O)CCN2CCCC2)cc1    inactive
24) Cc1ccc(CS(=O)(=O)CCN(C)C)cc1    inactive
25) CN(C)CCCNS(=O)(=O)Cc1ccc(Br)cc1    inactive
26) O=[N+]([O-])c1ccc(CS(=O)(=O)NCCN2CCOCC2)cc1    inactive
27) O=S(=O)(CCN1CCCC1)Cc1ccc(Br)cc1    inactive
28) CC(C)NCCS(=O)(=O)c1ccccc1    inactive
29) O=S(=O)(Cc1ccccc1)NCCN1CCCC1    inactive
30) CN(C)CCNS(=O)(=O)Cc1ccc(Br)cc1    inactive
31) O=S(=O)(CCN1CCOCC1)Cc1cccc(F)c1    inactive
32) O=S(=O)(CCN1CCOCC1)NCc1ccccc1    inactive
33) O=S(=O)(CCN1CCOCC1)Nc1ccccc1    inactive
34) C[N+](C)(C)CCS(=O)(=O)Cc1ccc(Br)cc1    inactive
35) CN(C)CCCOP(=O)(O)Oc1ccc(NC(=O)OC(C)(C)C)cc1    inactive
36) Cc1ccc(CS(=O)(=O)NCCN2CCOCC2)cc1    inactive
37) O=S(=O)(CCN1CCOCC1)NCc1ccc(F)cc1    active
38) Cc1ccc(CP(=O)(O)OCCCN(C)C)cc1    inactive
39) Cc1ccc(CS(=O)(=O)CC[N+](C)(C)C)cc1    active
40) CN(C)CCNC(=O)Cc1ccccc1    active

###

- experimentalTarget: Toll-like receptor 4 (Mus musculus) (UniProt Q9QUK6)
- Sequence (Q9QUK6 whole entry): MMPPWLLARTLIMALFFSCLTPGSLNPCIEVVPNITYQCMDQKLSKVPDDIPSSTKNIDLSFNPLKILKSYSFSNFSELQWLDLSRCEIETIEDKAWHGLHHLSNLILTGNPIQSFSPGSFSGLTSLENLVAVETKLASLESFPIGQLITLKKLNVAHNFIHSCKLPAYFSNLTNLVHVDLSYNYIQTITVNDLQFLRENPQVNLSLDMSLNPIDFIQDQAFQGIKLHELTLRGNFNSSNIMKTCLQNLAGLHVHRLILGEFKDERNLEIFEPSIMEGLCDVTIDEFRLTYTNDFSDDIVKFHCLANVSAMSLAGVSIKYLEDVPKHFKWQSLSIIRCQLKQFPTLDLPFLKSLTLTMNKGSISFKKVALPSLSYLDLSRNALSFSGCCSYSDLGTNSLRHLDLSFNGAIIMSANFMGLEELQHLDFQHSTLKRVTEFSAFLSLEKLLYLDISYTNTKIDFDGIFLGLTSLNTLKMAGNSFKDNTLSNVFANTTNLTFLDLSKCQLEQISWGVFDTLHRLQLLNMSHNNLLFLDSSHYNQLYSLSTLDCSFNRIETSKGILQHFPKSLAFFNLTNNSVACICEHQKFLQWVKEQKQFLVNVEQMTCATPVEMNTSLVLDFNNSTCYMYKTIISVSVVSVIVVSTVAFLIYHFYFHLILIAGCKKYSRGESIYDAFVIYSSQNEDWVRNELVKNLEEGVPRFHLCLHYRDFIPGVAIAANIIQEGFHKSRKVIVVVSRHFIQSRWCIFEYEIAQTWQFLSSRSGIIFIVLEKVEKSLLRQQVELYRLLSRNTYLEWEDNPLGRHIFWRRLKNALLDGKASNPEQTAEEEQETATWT
- experimentSummary: Inhibition of TLR4 in BALB/c mouse BMDM assessed as downregulation of LPS-stimulated IL-12p40 level at 5 ug/ml preincubated for 18 hrs followed by LPS challenge measured after 24 hrs by ELISA relative to control
Active and inactive are the calls of the source. No rule for the calls is given here.
Labels: t for active, f for inactive

1) C[N+](C)(C)CCS(=O)(=O)Cc1ccc(Br)cc1    f
2) O=S(=O)(CCN1CCCC1)NCc1ccccc1    f
3) CN(C)CCS(=O)(=O)NCc1ccccc1    f
4) O=[N+]([O-])c1ccc(CS(=O)(=O)NCCN2CCCC2)cc1    f
5) O=S(=O)(Cc1ccc2ccccc2c1)NCCN1CCOCC1    f
6) Cc1ccc(CS(=O)(=O)CCC[N+]2(C)CCCC2)cc1    f
7) CN(C)CCCNS(=O)(=O)Cc1ccc(F)cc1    f
8) O=S(=O)(Cc1ccc(Br)cc1)NCCN1CCCC1    f
9) Cc1ccc(CS(=O)(=O)CCC[N+](C)(C)C)cc1    f
10) O=S(=O)(CCCN1CCCC1)Cc1ccc(Br)cc1    f
11) CN1CCN(CCS(=O)(=O)c2ccccc2)CC1    f
12) O=S(=O)(CCN1CCCC1)Nc1ccc(F)cc1    t
13) O=S(=O)(CCN1CCOCC1)NCc1ccc(Br)cc1    f
14) Cc1ccc(CS(=O)(=O)NCCN2CCOCC2)cc1    f
